# assay_notes: protease stability score; higher = more stable; yeast display proteolysis, trypsin and chymotrypsin;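 note: relative to predicted unfolded state with 0 unfolded-like and 1 meaning tenfold more protease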
endpoint_label: protease stability score

- SEEEEFWKHIAKVMLDLVTTGNEDLFMKMADPNTKSEFNGRTVVGRERIAEILKKFKNITIIIHHIDIQGEKVRIHGRVLIGDKEIEDDWELVVVDGKIQRLHFEHV: 1.29
- DEDTNIEKMASQRIFHDIMTGDFQSLWEMFDPNARLIQGDWHSHGRENIIIYYMELVEKLGVTNVRFRLEDEDSQGDKVIIHSSLNINGRHFKLDIHAVKINGRWFIREVDVRLH: 1.4
- SEEEEDARRAFEMWFRVLMTGDEDQVDRLMDPHVRVDINGVDLHGRTTIRRLIHEEFNRADVRSFDVEHVDYQGDWVRLEVRLILVFNGKRLELKMELISRKINGRWILESQVVE: 1.39

The measurements presented in this section are drawn from the NTF2 design screens of Basanta et al. (2020).
